Taken from ChEMBL document CHEMBL3526131.

experiment: Clearance in human hepatocytes assessed per 10^6 cells; format: ADME, cell-based, Hepatocyte; conditions: read-out: CLH
observationType: hepatocyte CLint (µL/min/1e6 cells)
Supply the numeric figure in µL/min/1e6 cells, leaving out any unit text.

input: Quick one: hepatocyte CLint for C[C@@H]1CC[C@@]2(OC1)O[C@H]1C[C@H]3[C@@H]4CC=C5C[C@@H](O[C@@H]6O[C@H](CO)[C@@H](O[C@@H]7O[C@@H](C)[C@H](O)[C@@H](O)[C@H]7O)[C@H](O)[C@H]6O[C@@H]6O[C@@H](C)[C@H](O)[C@@H](O)[C@H]6O)CC[C@]5(C)[C@H]4CC[C@]3(C)[C@H]1[C@@H]2C ?
output: 35
